- System Name: Arabidopsis thaliana SHMT
- Assay Method Text: SHMT activity assay (ED50 SHMT), coupled with N5,N10-CH2-THF dehydrogenase, NADH at 340 nm
- Format: biochemical
- Condition Info: Table 2; values given as upper bounds
Measurement Name: EC50

Known value: Arabidopsis thaliana SHMT EC50 of the molecule CCC1(c2cc(Br)cc(C#N)c2)C(C#N)=C(N)Oc2[nH]nc(OC)c21 (stereo not shown) [Compound 2.601] equals < 1000 nM

Known value: Arabidopsis thaliana SHMT EC50 of the molecule CCC1(c2cc(C#N)cc(C(F)(F)F)c2)C(C#N)=C(N)Oc2[nH]nc(COC)c21 (stereo not shown) [Compound 2.588] equals < 100 nM

Known value: Arabidopsis thaliana SHMT EC50 of the molecule CCc1n[nH]c2c1C(c1cccc(Cl)c1)(C1CCC1)C(C#N)=C(N)O2 (stereo not shown) [Compound 2.173.] equals < 100 nM

Known value: Arabidopsis thaliana SHMT EC50 of the molecule CCC1(c2cccc(C(F)(F)F)c2)C(C#N)=C(N)Oc2[nH]nc(COC)c21 (racemic) [Compound 2.97.] equals < 10000 nM

Known value: Arabidopsis thaliana SHMT EC50 of the molecule Cc1n[nH]c2c1C(c1cc(Cl)cc(Cc3nnn[nH]3)c1)(C1CCC1)C(C#N)=C(N)O2 (stereo not shown) [Compound 2.570] equals < 10 nM

Known value: Arabidopsis thaliana SHMT EC50 of the molecule CC(=O)N(C)c1cc(C#N)cc(C2(C(C)C)C(C#N)=C(N)Oc3[nH]nc(C)c32)c1 (stereo not shown) [Compound 2.553] equals < 10 nM

Known value: Arabidopsis thaliana SHMT EC50 of the molecule CCC1(c2cc(C#N)cc(C(F)(F)F)c2)C(C#N)=C(N)Oc2[nH]nc(OC)c21 (stereo not shown) [Compound 2.599] equals < 1000 nM

Known value: Arabidopsis thaliana SHMT EC50 of the molecule CCCC1(c2cc(C#N)cc(C#N)c2)C(C#N)=C(N)Oc2[nH]nc(C(F)F)c21 (stereo not shown) [Compound 2.610] equals < 100 nM

Known value: Arabidopsis thaliana SHMT EC50 of the molecule Cc1n[nH]c2c1C(c1cccc(-c3cccc(C(=O)O)c3)c1)(C1CCC1)C(C#N)=C(N)O2 (stereo not shown) [Compound 2.494] equals < 100 nM

Known value: Arabidopsis thaliana SHMT EC50 of the molecule CCC1(c2ccc(Oc3ccc(C(F)(F)F)cc3Cl)c(C)c2)C(C#N)=C(N)Oc2[nH]nc(C3CC3)c21 (stereo not shown) [Compound 2.164.] equals < 10000 nM

Known value: Arabidopsis thaliana SHMT EC50 of the molecule Cc1n[nH]c2c1C(c1cc(C#N)cc(CCC#N)c1)(C1CCC1)C(C#N)=C(N)O2 (stereo not shown) [Compound 2.650] equals < 10 nM

Known value: Arabidopsis thaliana SHMT EC50 of the molecule Cc1n[nH]c2c1C(c1cc(C#N)cc(N(C)C(=O)c3ccc(C(=O)O)cc3)c1)(C1CCC1)C(C#N)=C(N)O2 (stereo not shown) [Compound 2.634] equals < 100 nM

Known value: Arabidopsis thaliana SHMT EC50 of the molecule CC(C)c1n[nH]c2c1C(c1ccc(Cl)cc1)(C1CC1)C(C#N)=C(N)O2 (stereo not shown) [Compound 2.128.] equals < 10000 nM

Known value: Arabidopsis thaliana SHMT EC50 of the molecule Cc1n[nH]c2c1C(c1cc(Cl)cc(OCC#N)c1)(C1CCC1)C(C#N)=C(N)O2 (stereo not shown) [Compound 2.443] equals < 10 nM

Known value: Arabidopsis thaliana SHMT EC50 of the molecule CCC1(c2ccc(O)c(C)c2)C(C#N)=C(N)Oc2[nH]nc(C)c21 (stereo not shown) [Compound 2.25.] equals < 1000 nM

Known value: Arabidopsis thaliana SHMT EC50 of the molecule Cc1n[nH]c2c1C(c1ccc(Cc3nnn[nH]3)c(Cl)c1)(C1CCC1)C(C#N)=C(N)O2 (stereo not shown) [Compound 2.639] equals < 10 nM

Known value: Arabidopsis thaliana SHMT EC50 of the molecule Cc1n[nH]c2c1C(c1cc(Cl)cc(Oc3ccccc3)c1)(C1CC1)C(C#N)=C(N)O2 (stereo not shown) [Compound 2.153.] equals < 100 nM

Known value: Arabidopsis thaliana SHMT EC50 of the molecule CCCC1(c2cc(C#N)cc(C#N)c2)C(C#N)=C(N)Oc2[nH]nc(C(C)C)c21 (stereo not shown) [Compound 2.586] equals < 1000 nM

Known value: Arabidopsis thaliana SHMT EC50 of the molecule CCC1(c2ccc(OC(=O)C(C)(C)C)c(C)c2)C(C#N)=C(N)Oc2[nH]nc(C)c21 (stereo not shown) [Compound 2.52.] equals < 1000 nM

Known value: Arabidopsis thaliana SHMT EC50 of the molecule CCC1(c2ccc(Br)c(Cl)c2)C(C#N)=C(N)Oc2[nH]nc(C)c21 (stereo not shown) [Compound 2.472] equals < 100 nM

Known value: Arabidopsis thaliana SHMT EC50 of the molecule Cc1cc(C2(C3CC3)C(C#N)=C(N)Oc3[nH]nc(C)c32)ccc1O (stereo not shown) [Compound 2.111.] equals < 10000 nM

Known value: Arabidopsis thaliana SHMT EC50 of the molecule CCC1(c2cc(Cl)cc(Br)c2)C(C#N)=C(N)Oc2[nH]nc(C)c21 (stereo not shown) [Compound 2.468] equals < 10 nM

Known value: Arabidopsis thaliana SHMT EC50 of the molecule Cc1n[nH]c2c1C(CC(C)C)(c1cc(Cl)cc(Cl)c1)C(C#N)=C(N)O2 (stereo not shown) [Compound 2.125.] equals < 100 nM

Known value: Arabidopsis thaliana SHMT EC50 of the molecule CCC1(c2cc(F)cc(F)c2)C(C#N)=C(N)Oc2[nH]nc(C)c21 (stereo not shown) [Compound 2.17.] equals < 1000 nM

Known value: Arabidopsis thaliana SHMT EC50 of the molecule CCC1(c2cc(C#N)cc(C(F)(F)F)c2)C(C#N)=C(N)Oc2[nH]nc(C(F)F)c21 (stereo not shown) [Compound 2.606] equals < 10 nM

Known value: Arabidopsis thaliana SHMT EC50 of the molecule CCCc1n[nH]c2c1C(CC)(c1cccc(C(F)(F)F)c1)C(C#N)=C(N)O2 (racemic) [Compound 2.99.] equals < 10000 nM

Known value: Arabidopsis thaliana SHMT EC50 of the molecule Cc1n[nH]c2c1C(c1cc(Cl)cc(Cl)c1)(C1CCC1)C(C#N)=C(N)O2 (stereo not shown) [Compound 2.154.] equals < 10 nM

Known value: Arabidopsis thaliana SHMT EC50 of the molecule CCC1(c2cc(C(F)(F)F)cc(C(F)(F)F)c2)C(C#N)=C(N)Oc2[nH]nc(C(F)F)c21 (stereo not shown) [Compound 2.166.] equals < 100 nM

Known value: Arabidopsis thaliana SHMT EC50 of the molecule Cc1n[nH]c2c1C(c1cccc(Cl)c1)(C(F)(F)F)C(C#N)=C(N)O2 (stereo not shown) [Compound 2.87.] equals < 10000 nM

Known value: Arabidopsis thaliana SHMT EC50 of the molecule Cc1n[nH]c2c1C(c1cc(Cl)cc(CCc3nnn[nH]3)c1)(C1CCC1)C(C#N)=C(N)O2 (stereo not shown) [Compound 2.539] equals < 10 nM

Known value: Arabidopsis thaliana SHMT EC50 of the molecule COc1ccc(C2(C(C)C)C(C#N)=C(N)Oc3[nH]nc(C)c32)cc1C(F)(F)F (stereo not shown) [Compound 2.144.] equals < 10 nM

These measurements were taken from patent US9480259B2.
